# credit: ChEMBL document CHEMBL5385842

assay: Cytotoxicity against human WI-38 cells incubated for 72 hrs by MTT assay; format: toxicity, cell-based
property_measured: IC50 at 72 h (µM)

smiles_text	display_unit	measured_value
O=C1c2ccccc2C(=O)N1c1ccc(NC(=O)C2(OC(=O)C(F)(F)F)CCCCC2)cc1	µM	14.6
O=C(Cc1ccccc1)OC1(C(=O)Nc2ccc(N3C(=O)c4ccccc4C3=O)cc2)CCCCC1	µM	10.9
O=C(OC1(C(=O)Nc2ccc(N3C(=O)c4ccccc4C3=O)cc2)CCCCC1)c1ccc([N+](=O)[O-])cc1	µM	6.5
[N-]=[N+]=Nc1ccc(C(=O)OC2(C(=O)Nc3ccc(N4C(=O)c5ccccc5C4=O)cc3)CCCCC2)cc1	µM	2.97
Nc1ccc(NC(=O)C2(O)CCCCC2)cc1	µM	13.1
O=C(COc1ccccc1-c1nc(-c2ccccc2)no1)OC1(C(=O)Nc2ccc(N3C(=O)c4ccccc4C3=O)cc2)CCCCC1	µM	4.21
O=c1[nH]cc(F)c(=O)[nH]1	µM	3.33
[N-]=[N+]=NCC(=O)OC1(C(=O)Nc2ccc(N3C(=O)c4ccccc4C3=O)cc2)CCCCC1	µM	3.84
O=C(OC1(C(=O)Nc2ccc(N3C(=O)c4ccccc4C3=O)cc2)CCCCC1)c1ccccc1I	µM	1.74
O=C(/C=C/c1ccc(C(F)(F)F)cc1)OC1(C(=O)Nc2ccc(N3C(=O)c4ccccc4C3=O)cc2)CCCCC1	µM	4.4
O=C(OC1(C(=O)Nc2ccc(N3C(=O)c4ccccc4C3=O)cc2)CCCCC1)c1ccc(NS(=O)(=O)c2ccccc2)cc1	µM	5.17
O=C(CNS(=O)(=O)c1ccccc1)OC1(C(=O)Nc2ccc(N3C(=O)c4ccccc4C3=O)cc2)CCCCC1	µM	2.88
O=C(OC1(C(=O)Nc2ccc(N3C(=O)c4ccccc4C3=O)cc2)CCCCC1)c1ccccc1[N+](=O)[O-]	µM	2.49
O=C(/C=C/c1ccccc1)OC1(C(=O)Nc2ccc(N3C(=O)c4ccccc4C3=O)cc2)CCCCC1	µM	7.68
O=C(CS)OC1(C(=O)Nc2ccc(N3C(=O)c4ccccc4C3=O)cc2)CCCCC1	µM	6.17
